Method: sensitizers of A549 cells to miR-34 induction, primary screen, imaging, A549 dox-inducible miR-34, nuclei and caspase counts (AID 1347080)
Particulars: A549 miR-34 inducible, Hoechst nuclei count, 48 h; measured here: total cells with miR-34 induction; stronger effect = lower value
Bridge positions count the residues as written; N and C are the ends. Square brackets hold non-standard residues; d marks the D form. Peptide text beside a SMILES is read from it. * marks the point of attachment. ξ: configuration not given here. ξDab(CH2SO3H) = NC(CCNCS(=O)(=O)O)C(=O)O; Heptanoyl(6-Me) = CC(C)CCCCC(=O)*; Dab = NCC[CH](N)C(=O)O
Please respond with TRUE when measured cell count is strictly beneath 8000, and with FALSE in all other cases.

Solved cases below.
1. COc1cc(N)c(Cl)cc1C(=O)N[C@@H]1CCN(CCCOc2ccc(F)cc2)C[C@@H]1OC: TRUE
2. CN(C)C1C(=O)C(C(N)=O)=C(O)C2(O)C(=O)C3=C(O)c4c(O)ccc(Cl)c4C(O)C3CC12 (centres undefined): TRUE
3. N[C@H](Cc1cc(I)c(Oc2ccc(O)c(I)c2)c(I)c1)C(=O)O: FALSE
4. CCN1CCN(C(=O)NC(C(=O)N[C@@H]2C(=O)N3[C@@H]2SC(C)(C)[C@@H]3C(=O)O)c2ccccc2)C(=O)C1=O (some centres undefined): FALSE
5. C[C@@H]1CC2C3C[C@H](F)C4=CC(=O)C=C[C@]4(C)[C@@]3(F)[C@@H](O)C[C@]2(C)[C@@]1(O)C(=O)COC(=O)C(C)(C)C (some centres undefined): TRUE
6. CCC(C)C1NC(=O)C(CCNCS(=O)(=O)O)NC(=O)C(NC(=O)C(CCNCS(=O)(=O)O)NC(=O)C(NC(=O)C(CCNCS(=O)(=O)O)NC(=O)CCCCC(C)C)C(C)O)CCNC(=O)C(C(C)O)NC(=O)C(CCNCS(=O)(=O)O)NC(=O)C(CCNCS(=O)(=O)O)NC(=O)C(C(C)CC)NC1=O (centres undefined) ({Heptanoyl(6-Me)}-[ξDab(CH2SO3H)]T[ξDab(CH2SO3H)][Dab][ξDab(CH2SO3H)]II[ξDab(CH2SO3H)][ξDab(CH2SO3H)]T; lactam 4-C; configuration not given here): FALSE
7. Cc1cc(=O)oc2cc(NC(=O)C3CCC(=O)N3)ccc12 (centres undefined): FALSE
8. NCCCC(N)C(=O)O (centres undefined): FALSE
9. NC(N)=NCCCC(N)C(=O)O (centres undefined): FALSE
10. CC1CC2C3CCC4=CC(=O)C=CC4(C)[C@@]3(Cl)C(O)CC2(C)C1(O)C(=O)CO (some centres undefined): TRUE

Request: Quick check: cell count of C[N+](C)(C)CCOP(=O)([O-])OP(=O)(O)OC[C@H]1OC(n2ccc(N)nc2=O)[C@H](O)[C@@H]1O (some centres undefined) under 8000?
Response: FALSE

Request: Quick check: cell count of `O=C(/C=C/c1c(C(=O)O)[nH]c2cc(Cl)cc(Cl)c12)Nc1ccccc1` under 8000?
Response: FALSE

Request: Quick check: cell count of `CC(C)N1CCN(c2ccc(OC[C@H]3CO[C@](Cn4cncn4)(c4ccc(Cl)cc4Cl)O3)cc2)CC1` under 8000?
Response: FALSE

Request: Quick check: cell count of CN(C)CCCO[C@H]1[C@@H](C(O)CO)OC2OC(C)(C)O[C@@H]21 (some centres undefined) under 8000?
Response: FALSE

Request: Quick check: cell count of CC1/C=C/C=C/C=C/C=C/C=C/C=C/C=C/C(O[C@@H]2O[C@H](C)[C@H](O)[C@@H](O)[C@@H]2N)CC(O)C(C(=O)O)C(O)CC(=O)CC(O)CC(O)CC(O)CC(=O)CCCC(=O)CC(=O)OC1C(C)CC(C)C(O)CC(=O)c1ccc(N)cc1 (some centres undefined) under 8000?
Response: TRUE

###

Entries annotated with measured parasite load remaining
Method: liver-stage malaria parasite growth inhibition, primary screen, cell-based, HepG2, luciferase luminescence, HepG2 viability (AID 624349);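 further: 100% = mean of DMSO negative control wells on the same plate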
Particulars: P. berghei liver stage in HepG2, luciferase luminescence, concentration not given here; stronger effect = lower value
// units = %; emit number, no label

Here is how some compounds turned out for parasite load remaining.
1. CCCCC[C@H](O)/C=C/[C@H]1[C@H](O)CC(=O)[C@@H]1C/C=C\CCCC(=O)O: 43.5
2. CC(=O)Nc1ccc(S(=O)(=O)c2ccc(NC(C)=O)cc2)cc1: 52.4

Lab note: next compound to report on.
Request: Consider the compound CCCCC(=O)OC1(C(=O)CO)CCC2C3CCC4=CC(=O)CCC4(C)C3C(O)CC21C (stereo not drawn) and give its measured parasite load remaining.
Response: 89.7

###

Tgt: L-lactate dehydrogenase (Plasmodium falciparum (isolate CDC / Honduras)) (UniProt Q27743)
Sequence (Q27743 whole entry, looked up): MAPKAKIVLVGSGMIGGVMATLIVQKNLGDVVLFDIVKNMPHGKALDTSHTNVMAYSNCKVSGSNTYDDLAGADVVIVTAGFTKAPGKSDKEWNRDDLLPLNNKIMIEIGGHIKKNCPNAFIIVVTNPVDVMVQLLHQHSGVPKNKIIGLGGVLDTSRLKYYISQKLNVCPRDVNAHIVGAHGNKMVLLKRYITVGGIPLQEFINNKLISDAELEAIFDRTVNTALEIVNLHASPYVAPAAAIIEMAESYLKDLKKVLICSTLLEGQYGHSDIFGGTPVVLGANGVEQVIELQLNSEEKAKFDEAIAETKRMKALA
Method: PfLDH activity inhibition – cell lysate, 3D7 strain, counter-screen for P. falciparum growth inhibition project (AID 2304);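 further: 0% = vehicle and 100% = reference inhibitor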
Particulars: P. falciparum 3D7 crude extract, LDH APAD/NBT absorbance; at 2 µM; stronger effect = higher value
Property Name: inhibition (%)
// units = %; emit number, no label

Here is how some compounds turned out for inhibition.
1. COc1cc(Nc2ncnc3cc(OC)c(OC)cc23)cc([N+](=O)[O-])c1: 8
2. COc1cccc([C@@H](CC(=O)Nc2cc(C(F)(F)F)ccc2OC)Nc2ccc(C#N)c3ccccc23)c1: -3
3. COc1ccc(-c2ccc(NC(=O)c3ccc(C#N)cc3)cc2)cc1CN1CCCC1: 5
4. CC(C)CC(=O)N1CCNC[C@@H]1C(=O)NCCSCc1c(F)cccc1Cl: 0
5. CC(C)c1ccc(NC(=O)c2ccc(CN3CCCN(CC4CCCCC4)CC3)cc2)cc1: 6

Lab note: next compound to report on.
Request: Consider the compound `CN(C)S(=O)(=O)n1ccc2c3c(N)nc(N)nc3ccc21` and give its measured inhibition.
Response: -4

###

Tgt: Single-stranded DNA-binding protein (Escherichia coli (strain K12)) (UniProt P0AGE0)
Method: E. coli SSB displacement from DNA, counter-screen for HCV NS3 helicase inhibitor project, biochemical, fluorescence polarization, NIH Clinical Collection (AID 743271)
Particulars: stronger effect = higher value, concentration not given here
Entries annotated with measured inhibition
// units = %; emit number, no label

1. COc1nc(C)nc(Cl)c1NC1=NCCN1: 5.29
2. CCC(=C(c1ccccc1)c1ccc(OCCN(C)C)cc1)c1ccccc1: 7.15

Request: Consider the molecule `COc1cccc2c1C(=O)c1c(O)c3c(c(O)c1C2=O)C[C@@](O)(C(=O)CO)C[C@@H]3O[C@H]1C[C@H](N)[C@@H](O)[C@H](C)O1` and give its measured inhibition.
Response: 17.6

Request: Consider the molecule CC(=O)C1(O)CCC2C3CC(C)C4=CC(=O)C=CC4(C)C3(F)C(O)CC21C (stereo not drawn) and give its measured inhibition.
Response: -0.48

Request: Consider the molecule CCCCC(=O)OC1(C(=O)CO)CCC2C3CCC4=CC(=O)CCC4(C)C3C(O)CC21C (stereo not drawn) and give its measured inhibition.
Response: -5.05

Request: Consider the molecule CCOC(=O)C1(CCCCCCOc2ccc(Cl)cc2)CO1 (stereo not drawn) and give its measured inhibition.
Response: -2.41

Request: Consider the molecule `CC(=O)CCCCn1cnc2c1c(=O)n(C)c(=O)n2C` and give its measured inhibition.
Response: -0.1

Request: Consider the molecule `CN(C)S(=O)(=O)c1ccc2c(c1)/C(=C\CCN1CCNCC1)c1ccccc1S2` and give its measured inhibition.
Response: 1.81

Request: Consider the molecule CCOC(=O)CCC(=O)OC1C(OC2C(C)C(OC3CC(C)(OC)C(O)C(C)O3)C(C)C(=O)OC(CC)C(C)(O)C(O)C(C)C(=O)C(C)CC2(C)O)OC(C)CC1N(C)C (stereo not drawn) and give its measured inhibition.
Response: 0.29

###

Entries annotated with measured red/green cell ratio (normalised)
Method: differential killing of epithelial or mesenchymal cells, primary screen, imaging, PC-3E GFP, TEM4-18 mCherry, co-culture (AID 1345086);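 further: normalised mesenchymal count divided by normalised epithelial count so high means epithelial killing; cells exposed to compound for 72 h before imaging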
Particulars: imaging cell counts, at 1 µM, actives lie on both sides, counts scaled to control wells, 1 = unselective
Activity calls are given as the source filed them.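 How the source made its calls: active means compounds killing one labelled cell type while sparing the other, by normalised counts and ratio limits, not self-fluorescent; inactive means the rest.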

Here is how some compounds turned out for red/green cell ratio (normalised).
1) C[C@@H]1O[C@@H](OC[C@H]2OC(Oc3c(-c4ccc(OCCO)c(OCCO)c4)oc4cc(OCCO)cc(O)c4c3=O)[C@H](O)[C@@H](O)[C@@H]2O)[C@H](O)[C@H](O)[C@H]1O (stereo not given in full): 0.94 (inactive)
2) CC(=O)O[C@H]1CC2CCC3C(CC[C@@]4(C)C3C[C@H]([N+]3(C)CCCCC3)[C@@H]4OC(C)=O)[C@@]2(C)C[C@@H]1[N+]1(C)CCCCC1 (stereo not given in full): 0.99 (inactive)
3) CO/C(C)=C1/C(=O)C(CO)OC1O (stereo not given): 1.02 (inactive)
4) COc1cc(/C=C/C(=O)O)cc(OC)c1O: 1.1 (inactive)
5) COCC1=C(C(=O)OC(C)OC(=O)OC(C)C)N2C(=O)[C@@H](NC(=O)/C(=N/OC)c3csc(N)n3)[C@H]2SC1 (stereo not given in full): 1.05 (inactive)

Request: Consider the compound `Cc1c(F)c(F)cc(C(=O)NC(=O)NC2CC2)c1F` and give its measured red/green cell ratio (normalised).
Response: 1 (inactive)
